Target: mTOR (human recombinant aa mTOR 1360-2549) (Homo sapiens (Human))
Experiment: mTOR enzymatic test by TR-FRET (phosphorylation of GFP-4EBP1)
Reported IC50 values for the following compounds.
Entry rule: numbers only, all in nM.

Would you please look over these solved cases?
{"compound": "CCN1CC(C)(C)Oc2nc(N3CC4CCC(C3)O4)nc(-c3ccc(NC(=O)Nc4cncc(OC)n4)c(F)c3)c2C1=O [Example 139]", "parameter": "IC50", "value unit": "nM", "assay value": 251}
{"compound": "CCN1CC(C)(C)Oc2nc(N3CCOC[C@@H]3C)nc(-c3ccc(NC(=O)Nc4ccccc4F)cc3)c2C1=O [Example 202]", "parameter": "IC50", "value unit": "nM", "assay value": 19}

Identify the measured IC50 of COCCN1CC(C)(C)Oc2nc(N3CC4CCC(C3)O4)nc(-c3ccc(NC(=O)Nc4ccc(F)cc4F)cc3)c2C1=O [Example 162] for mTOR (human recombinant aa mTOR 1360-2549) (Homo sapiens (Human)).
147

###

Reported pIC50 values for the following molecules.
Target: mTOR (human recombinant aa mTOR 1360-2549) (Homo sapiens (Human))
Assay: mTOR enzymatic test by TR-FRET (phosphorylation of GFP-4EBP1)
Would you please state pIC50, meaning minus log10 of the concentration in mol/L, as a bare number?

{"molecule": "CCN1CC(C)(C)Oc2nc(N3CC4CCC(C3)O4)nc(-c3ccc(NC(=O)Nc4ccc(C(F)(F)F)nc4)c(F)c3)c2C1=O [Example 230]", "experimental system": "mTOR (human recombinant aa mTOR 1360-2549) (Homo sapiens (Human))", "pIC50": 7.11}
{"molecule": "CNC(=O)Nc1ccc(-c2nc(N3CC4CCC(C3)O4)nc3c2C(=O)N(C)CC(C)(C)O3)cc1F [Example 45]", "experimental system": "mTOR (human recombinant aa mTOR 1360-2549) (Homo sapiens (Human))", "pIC50": 7.62}
{"molecule": "CCNC(=O)Nc1ccc(-c2nc(N3CCOCC3)nc3c2C(=O)NCC(C)(C)O3)cc1 [Example 94]", "experimental system": "mTOR (human recombinant aa mTOR 1360-2549) (Homo sapiens (Human))", "pIC50": 6.95}
{"molecule": "CCN1CC(C)(C)Oc2nc(N3CCOC[C@@H]3C)nc(-c3ccc(NC(=O)Nc4ccncc4)cc3F)c2C1=O [Example 12]", "experimental system": "mTOR (human recombinant aa mTOR 1360-2549) (Homo sapiens (Human))", "pIC50": 7.77}
{"molecule": "CCN1CC(C)(C)Oc2nc(N3C4CCC3COC4)nc(-c3ccc(NC(=O)Nc4ccc(N5CCOCC5(C)C)nc4)c(F)c3)c2C1=O [Example 257]", "experimental system": "mTOR (human recombinant aa mTOR 1360-2549) (Homo sapiens (Human))", "pIC50": 6.85}
{"molecule": "CCN1CC(C)(C)Oc2nc(N3CC4CCC(C3)O4)nc(-c3ccc(NC(=O)Nc4cn(C)cn4)c(F)c3)c2C1=O [Example 194]", "experimental system": "mTOR (human recombinant aa mTOR 1360-2549) (Homo sapiens (Human))", "pIC50": 7.57}
{"molecule": "CCN1CC(C)(C)Oc2nc(N3CC4CCC(C3)O4)nc(-c3ccc(NC(=O)Nc4ccc(N5CCN(C(=O)OC)CC5)nc4)c(F)c3)c2C1=O [Example 81]", "experimental system": "mTOR (human recombinant aa mTOR 1360-2549) (Homo sapiens (Human))", "pIC50": 6.91}
{"molecule": "CCN1CC(C)(C)Oc2nc(N3CC4CCC(C3)O4)nc(-c3ccc(NC(=O)Nc4ccc(N5CCCC5)cn4)cc3)c2C1=O [Example 25]", "experimental system": "mTOR (human recombinant aa mTOR 1360-2549) (Homo sapiens (Human))", "pIC50": 6.89}

Please look up its pIC50: CCN1CC(C)(C)Oc2nc(N3CCOC[C@@H]3C)nc(-c3ccc(NC(=O)Nc4ccc(C(=O)NCC(C)(C)O)cc4)cc3)c2C1=O [Example 219]
7.42

Please look up its pIC50: CCN1CC(C)(C)Oc2nc(N3CC4CCC(C3)O4)nc(-c3ccc(NC(=O)Nc4cccnc4)c(F)c3)c2C1=O [Example 223]
7.70

Please look up its pIC50: CCN1CC(C)(C)Oc2nc(N3CC4CCC(C3)O4)nc(-c3ccc(NC(=O)Nc4cc(C)on4)cc3)c2C1=O [Example 116]
7.38

Please look up its pIC50: CCN1CC(C)(C)Oc2nc(N3CCOC[C@@H]3C)nc(-c3ccc(NC(=O)Nc4cc(OC)ccn4)c(F)c3)c2C1=O [Example 181]
7.13

###

Biological target: mTOR (human recombinant aa mTOR 1360-2549) (Homo sapiens (Human), UniProt P42345)
Sequence (P42345 1360-2549): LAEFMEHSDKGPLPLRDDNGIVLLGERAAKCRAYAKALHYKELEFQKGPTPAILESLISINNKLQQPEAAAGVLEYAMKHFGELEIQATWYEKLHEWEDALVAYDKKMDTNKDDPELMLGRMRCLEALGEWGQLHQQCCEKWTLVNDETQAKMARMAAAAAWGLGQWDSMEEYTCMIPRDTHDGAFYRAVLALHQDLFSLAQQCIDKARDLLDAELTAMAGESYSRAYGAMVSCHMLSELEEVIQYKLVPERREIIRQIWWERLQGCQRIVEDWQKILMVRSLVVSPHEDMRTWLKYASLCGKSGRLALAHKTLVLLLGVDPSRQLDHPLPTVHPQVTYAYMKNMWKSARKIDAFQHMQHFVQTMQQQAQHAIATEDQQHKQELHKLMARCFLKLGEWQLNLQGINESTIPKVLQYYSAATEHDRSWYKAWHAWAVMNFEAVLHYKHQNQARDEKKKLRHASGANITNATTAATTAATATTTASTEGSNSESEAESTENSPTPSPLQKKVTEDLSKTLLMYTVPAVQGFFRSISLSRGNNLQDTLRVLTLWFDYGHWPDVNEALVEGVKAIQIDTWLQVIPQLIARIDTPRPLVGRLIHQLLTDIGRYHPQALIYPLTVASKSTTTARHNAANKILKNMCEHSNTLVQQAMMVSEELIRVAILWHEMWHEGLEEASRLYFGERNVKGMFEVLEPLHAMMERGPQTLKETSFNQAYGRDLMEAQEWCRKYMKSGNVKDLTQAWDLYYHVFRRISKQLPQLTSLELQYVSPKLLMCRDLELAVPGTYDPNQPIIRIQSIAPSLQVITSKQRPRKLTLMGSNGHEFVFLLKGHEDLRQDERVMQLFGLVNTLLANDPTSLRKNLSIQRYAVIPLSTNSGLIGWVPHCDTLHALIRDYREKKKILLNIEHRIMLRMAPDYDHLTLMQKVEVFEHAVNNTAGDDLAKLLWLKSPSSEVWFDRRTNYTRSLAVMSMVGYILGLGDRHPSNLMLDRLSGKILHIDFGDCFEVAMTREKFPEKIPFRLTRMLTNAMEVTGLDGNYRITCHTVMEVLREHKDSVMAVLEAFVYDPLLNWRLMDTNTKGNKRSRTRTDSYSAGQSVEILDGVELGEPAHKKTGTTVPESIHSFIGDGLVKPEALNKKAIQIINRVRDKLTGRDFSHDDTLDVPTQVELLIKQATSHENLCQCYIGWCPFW
Assay: mTOR enzymatic test by TR-FRET (phosphorylation of GFP-4EBP1)
Mark each entry Fulfilled if its IC50 sits below 90 nM, and Not fulfilled for all others.

Solved entries:
{"given smiles": "CCN1CC(C)(C)Oc2nc(N3CCOC[C@@H]3C)nc(-c3ccc(NC(=O)OCCO)c(F)c3)c2C1=O", "class name": "Not fulfilled"}
{"given smiles": "CCN1CC(C)(C)Oc2nc(N3CCOC[C@@H]3C)nc(-c3ccc(NC(=O)Nc4ccon4)c(C)c3)c2C1=O", "class name": "Not fulfilled"}
{"given smiles": "CCN1CC(C)(C)Oc2nc(N3CC4CCC(C3)O4)nc(-c3ccc(NC(=O)Nc4ccc(N5CCN(C)CC5)nc4)c(F)c3)c2C1=O", "class name": "Fulfilled"}
{"given smiles": "CCN1CC(C)(C)Oc2nc(N3CC4CCC(C3)O4)nc(-c3ccc(NC(=O)Nc4cc(OC)c(F)cc4F)cc3)c2C1=O", "class name": "Fulfilled"}
{"given smiles": "CCN1CC(C)(C)Oc2nc(N3C4CCC3COC4)nc(-c3ccc(NC(=O)OCCO)cc3F)c2C1=O", "class name": "Fulfilled"}
{"given smiles": "CC[C@H]1COCCN1c1nc2c(c(-c3ccc(NC(=O)Nc4ccc(C)nc4)c(F)c3)n1)C(=O)N(CC)CC(C)(C)O2", "class name": "Not fulfilled"}
{"given smiles": "CCN1CC(C)(C)Oc2nc(N3C4CCC3COC4)nc(-c3ccc(NC(=O)NC4CC4)c(F)c3)c2C1=O", "class name": "Fulfilled"}

Lab log: compare recorded IC50 with 90 nM; is it strictly lower for CCN1CC(C)(C)Oc2nc(N3CCOC[C@@H]3C)nc(-c3ccc(NC(=O)Nc4cnc(C)cn4)c(F)c3)c2C1=O ?
Fulfilled

###

Reported PI3Ka IC50 values for the following compounds.
Biological target: PI3Kα (p110α/p85α) (Homo sapiens (Human), UniProt P42336)
Sequence (P42336 whole entry): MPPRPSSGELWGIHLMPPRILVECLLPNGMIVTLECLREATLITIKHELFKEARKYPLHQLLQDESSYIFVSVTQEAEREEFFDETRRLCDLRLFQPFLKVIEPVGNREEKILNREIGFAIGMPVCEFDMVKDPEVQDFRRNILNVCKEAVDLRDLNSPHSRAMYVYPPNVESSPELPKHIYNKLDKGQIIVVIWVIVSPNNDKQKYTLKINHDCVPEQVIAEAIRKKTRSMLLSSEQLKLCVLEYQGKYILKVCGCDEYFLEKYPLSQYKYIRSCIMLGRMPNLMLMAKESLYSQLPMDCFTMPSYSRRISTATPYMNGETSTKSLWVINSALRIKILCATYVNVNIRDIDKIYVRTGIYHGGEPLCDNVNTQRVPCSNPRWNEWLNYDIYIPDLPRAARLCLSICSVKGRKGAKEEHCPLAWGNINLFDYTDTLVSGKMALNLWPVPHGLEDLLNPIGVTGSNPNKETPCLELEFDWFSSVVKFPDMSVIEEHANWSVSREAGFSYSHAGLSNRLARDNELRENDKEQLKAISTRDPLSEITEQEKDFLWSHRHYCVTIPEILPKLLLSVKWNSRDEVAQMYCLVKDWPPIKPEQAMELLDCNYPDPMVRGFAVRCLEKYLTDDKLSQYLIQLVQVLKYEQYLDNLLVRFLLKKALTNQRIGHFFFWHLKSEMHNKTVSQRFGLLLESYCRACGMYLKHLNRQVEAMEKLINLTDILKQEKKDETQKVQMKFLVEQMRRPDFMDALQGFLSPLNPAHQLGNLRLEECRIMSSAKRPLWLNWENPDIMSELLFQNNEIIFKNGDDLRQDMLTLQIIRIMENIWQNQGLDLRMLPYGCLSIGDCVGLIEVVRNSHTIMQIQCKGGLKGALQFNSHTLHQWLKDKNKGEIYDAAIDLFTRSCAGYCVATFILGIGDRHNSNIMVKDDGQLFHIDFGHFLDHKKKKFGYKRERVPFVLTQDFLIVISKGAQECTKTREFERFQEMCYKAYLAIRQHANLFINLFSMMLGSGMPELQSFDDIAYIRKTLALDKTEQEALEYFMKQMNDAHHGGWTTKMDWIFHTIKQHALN
Sequence (P27986 whole entry partner): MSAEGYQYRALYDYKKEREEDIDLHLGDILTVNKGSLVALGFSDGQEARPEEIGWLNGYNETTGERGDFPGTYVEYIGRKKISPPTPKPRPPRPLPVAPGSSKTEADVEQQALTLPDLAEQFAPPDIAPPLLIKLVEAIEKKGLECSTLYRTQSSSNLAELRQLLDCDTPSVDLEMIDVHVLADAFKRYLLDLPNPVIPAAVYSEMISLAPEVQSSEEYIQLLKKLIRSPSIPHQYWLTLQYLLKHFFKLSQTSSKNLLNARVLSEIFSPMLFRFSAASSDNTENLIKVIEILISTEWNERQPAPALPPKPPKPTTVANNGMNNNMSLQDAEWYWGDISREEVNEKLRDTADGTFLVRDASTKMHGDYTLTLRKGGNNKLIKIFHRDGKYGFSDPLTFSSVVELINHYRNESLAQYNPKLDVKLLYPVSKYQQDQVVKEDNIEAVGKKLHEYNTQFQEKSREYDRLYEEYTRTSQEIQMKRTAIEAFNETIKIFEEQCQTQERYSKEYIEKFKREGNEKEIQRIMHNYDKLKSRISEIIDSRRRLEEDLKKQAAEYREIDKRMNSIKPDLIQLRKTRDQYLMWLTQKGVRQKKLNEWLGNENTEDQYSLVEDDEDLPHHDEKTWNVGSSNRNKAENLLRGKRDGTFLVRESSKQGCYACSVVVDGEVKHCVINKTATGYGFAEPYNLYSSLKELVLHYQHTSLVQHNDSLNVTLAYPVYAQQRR
Assay: PI3Kα enzymatic test by measuring the consumption of ATP
Assay type: biochemical
Entry rule: numbers only, all in µM.

Please look up its PI3Ka IC50: CCN1CC(C)(C)Oc2nc(N3CCOC[C@@H]3C)nc(-c3ccc(NC(=O)Nc4cccc(C)n4)cc3)c2C1=O
4.4

Please look up its PI3Ka IC50: CCN1CC(C)(C)Oc2nc(N3CCOC[C@@H]3C)nc(-c3ccc(NC(=O)Nc4ccc(OC)nc4)c(F)c3)c2C1=O
0.598

Please look up its PI3Ka IC50: CCN1CC(C)(C)Oc2nc(N3CCOC[C@@H]3C)nc(-c3ccc(NC(=O)Nc4ccon4)c(C)c3)c2C1=O
3.86

Please look up its PI3Ka IC50: CCN1CC(C)(C)Oc2nc(N3CC4CCC(C3)O4)nc(-c3ccc(NC(=O)Nc4cn(C)cn4)c(F)c3)c2C1=O
1.23

Please look up its PI3Ka IC50: CCN1CC(C)(C)Oc2nc(N3CCOC[C@@H]3C)nc(-c3ccc(NC(=O)Nc4cn(C)cn4)c(F)c3)c2C1=O
0.159

Please look up its PI3Ka IC50: CCN1CC(C)(C)Oc2nc(N3CCOC[C@@H]3C)nc(-c3ccc(NC(=O)OCCO)cc3)c2C1=O
3.94

Please look up its PI3Ka IC50: CCN1CC(C)(C)Oc2nc(N3CC4CCC(C3)O4)nc(-c3ccc(NC(=O)Nc4cccnc4)c(F)c3)c2C1=O
2.07

###

System: U87MG tumour cells
Assay: Test of in vitro proliferation of U87MG tumour cells
Type: cell-based
Settings: Homo sapiens, U-87 MG, 72 h, U87MG cells, 72 hours; read-out: U87 Cell Proliferation IC50
pIC50: −log10 of the molar value.
Reported pIC50 values for the following compounds.

{"given smiles": "CCN1CC(C)(C)Oc2nc(N3CC4CCC(C3)O4)nc(-c3ccc(NC(=O)NCCCO)cc3)c2C1=O", "experimental system": "U87MG tumour cells", "pIC50": "< 5.52"}
{"given smiles": "CCN1CC(C)(C)Oc2nc(N3CC4CCC(C3)O4)nc(-c3ccc(NC(=O)NCC(C)(C)O)c(F)c3)c2C1=O", "experimental system": "U87MG tumour cells", "pIC50": "< 5.00"}

Identify the measured pIC50 of CCN1CC(C)(C)Oc2nc(N3CC4CCC(C3)O4)nc(-c3ccc(N)nc3)c2C1=O for U87MG tumour cells.
< 5.00
